TARGET_OR_SYSTEM: Cytochrome P450 1A2 (Homo sapiens)
TEST_PROTOCOL: Cytochrome P450 Family 1 Subfamily A Member 2 (CYP1A2) small molecule antagonists: luciferase reporter qHTS assay (AID 1671199); also: nearly all actives have a fitted effect of over 50% in size
EXPERIMENTAL_SETUP: P450-Glo CYP1A2 enzyme, luciferin luminescence, 1 h; series mostly up to 115 µM
Records with an inconclusive call do not appear. Active and inactive are the calls of the source. Calls follow the shape of the dose curve; as a rule, active = well fitted inhibition curve with a large enough effect in the repeat runs; inconclusive = weak or mixed curves; inactive = no such curve, though single readings can be large or run the other way.
Tick one outcome: active, inactive

                                  molecule                    target_or_system  answer_label
0          COc1ccc(CN(CCN(C)C)c2ccccn2)cc1  Cytochrome P450 1A2 (Homo sapiens)      inactive
1  CC(=O)Nc1c(I)c(NC(C)=O)c(I)c(C(=O)O)c1I  Cytochrome P450 1A2 (Homo sapiens)      inactive

Query :: Please share the test call associated with "CS(=O)(=O)OCCCCOS(C)(=O)=O" .
Result :: inactive

* * *

TEST_PROTOCOL: qHTS assay for identifying genotoxic compounds that show differential cytotoxicity against isogenic chicken DT40 cell lines with known DNA damage response pathways - Rev3 mutant cell line (AID 743014); also: nearly all actives have a fitted effect of over 55% in size
EXPERIMENTAL_SETUP: chicken DT40 Rev3-/- viability, CellTiter-Glo, 40 h; series mostly up to 68.4 µM
Records with an inconclusive call do not appear. The source made the active and inactive calls. Calls follow the shape of the dose curve; as a rule, active = well fitted cell-killing curve with a large enough effect in the repeat runs; inconclusive = weak or mixed curves, or effect the other way; inactive = no such curve, though single readings can be large or run the other way.
Tick one outcome: active, inactive

In [3]: df
Out[3]:
                                   molecule  answer_label
0                CS(=O)(=O)OCCCCOS(C)(=O)=O      inactive
1  CCCCC1(COC(=O)CCC(=O)O)C(=O)N(c2ccccc2)N(c2ccccc2)C1=O      inactive
2  CCN(Cc1c(F)cccc1Cl)c1c([N+](=O)[O-])cc(C(F)(F)F)cc1[N+](=O)[O-]        active
3  CC1(C)S[C@@H]2[C@H](NC(=O)[C@H](N)c3ccccc3)C(=O)N2[C@H]1C(=O)O      inactive
4                            COc1cccc(O)c1O        active

Pending molecule:
Query :: Please share the test call associated with "CCCCCCCC(=O)OCC(COC(=O)CCCCCCC)OC(=O)CCCCCCC" .
Result :: inactive

* * *

TEST_PROTOCOL: qHTS assay to identify small molecule agonists of the estrogen receptor beta (ER-beta) signaling pathway - cell viability counter screen (AID 1259380); also: nearly all actives have a fitted effect of over 30% in size
EXPERIMENTAL_SETUP: ER-beta-bla HEK293T viability, CellTiter-Glo luminescence, 16 h; series mostly up to 92.4 µM
Records with an inconclusive call do not appear. The source made the active and inactive calls. Calls follow the shape of the dose curve; as a rule, active = well fitted cell-killing curve with a large enough effect in the repeat runs; inconclusive = weak or mixed curves, or effect the other way; inactive = flat fitted curve, though single readings scatter.
QUANTITY_KIND: Potency

In [3]: df
Out[3]:
                  compound_structure_string  quantity_kind    result
0  CCCCCCCC(=O)OCC(COC(=O)CCCCCCC)OC(=O)CCCCCCC        Potency  inactive
1                              CC(=O)C(=O)O        Potency  inactive
2                 CCCc1cc(=O)[nH]c(=S)[nH]1        Potency  inactive
3                     Nc1ccc(S(N)(=O)=O)cc1        Potency  inactive

Query :: Identify measured Potency associated with "Cc1ncc([N+](=O)[O-])n1CCO"
Result :: inactive

Query :: Identify measured Potency associated with "CNNCc1ccc(C(=O)NC(C)C)cc1"
Result :: inactive

* * *

TARGET_OR_SYSTEM: Nuclear receptor ROR-gamma (Homo sapiens) (UniProt P51449)
TEST_PROTOCOL: qHTS assay to identify small molecule antagonists of the retinoid-related orphan receptor gamma (ROR-gamma) signaling pathway (AID 1159521; also: nearly all actives have a fitted effect of over 50% in size)
EXPERIMENTAL_SETUP: Tet-on RORgamma CHO cells, RORE-luciferase, 16 h; series mostly up to 92.4 µM
Results filed as inconclusive are left out. Activity calls are given as the source filed them. Calls follow the shape of the dose curve; as a rule, active = well fitted inhibition curve with a large enough effect in the repeat runs; inconclusive = weak or mixed curves, or effect the other way; inactive = no such curve, though single readings can be large or run the other way.
Tick one outcome: active, inactive

Use the examples below as a reference point.
>>> print(df.to_string())
                                   molecule                          target_or_system  answer_label
0                              CC(=O)C(=O)O  Nuclear receptor ROR-gamma (Homo sapiens) (UniProt P51449)      inactive
1                            COc1cccc(O)c1O  Nuclear receptor ROR-gamma (Homo sapiens) (UniProt P51449)        active
2  O=S1(=O)OC(c2ccc(O)cc2)(c2ccc(O)cc2)c2ccccc21  Nuclear receptor ROR-gamma (Homo sapiens) (UniProt P51449)      inactive
3        O=C(Nc1ncc([N+](=O)[O-])s1)c1cccs1  Nuclear receptor ROR-gamma (Homo sapiens) (UniProt P51449)      inactive

Query :: Please share the test call associated with "CCN(CC)C(=O)c1cccc(C)c1" .
Result :: inactive

Query :: Please share the test call associated with "O=C(O)c1ccccc1" .
Result :: inactive

Query :: Please share the test call associated with "CC1(C)O[C@@H]2C[C@H]3[C@@H]4CCC5=CC(=O)C=C[C@]5(C)[C@@]4(F)[C@@H](O)C[C@]3(C)[C@]2(C(=O)CO)O1" .
Result :: inactive

* * *

TARGET_OR_SYSTEM: Cytochrome P450 2D6 (Homo sapiens) (UniProt P10635)
Sequence (P10635 whole entry, looked up): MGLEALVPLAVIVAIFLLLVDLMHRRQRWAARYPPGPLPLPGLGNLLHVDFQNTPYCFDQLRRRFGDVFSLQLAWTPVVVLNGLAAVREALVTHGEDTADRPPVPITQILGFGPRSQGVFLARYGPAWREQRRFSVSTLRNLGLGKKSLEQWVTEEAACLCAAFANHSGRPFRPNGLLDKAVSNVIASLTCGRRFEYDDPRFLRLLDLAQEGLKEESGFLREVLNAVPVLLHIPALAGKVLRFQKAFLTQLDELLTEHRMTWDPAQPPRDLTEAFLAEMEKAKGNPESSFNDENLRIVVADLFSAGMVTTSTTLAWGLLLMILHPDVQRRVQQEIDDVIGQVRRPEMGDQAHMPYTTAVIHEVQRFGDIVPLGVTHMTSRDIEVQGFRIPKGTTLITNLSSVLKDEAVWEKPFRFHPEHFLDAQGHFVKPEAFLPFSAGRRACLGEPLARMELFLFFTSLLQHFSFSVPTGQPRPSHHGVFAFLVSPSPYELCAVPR
TEST_PROTOCOL: Cytochrome P450 Family 2 Subfamily D Member 6 (CYP2D6) small molecule antagonists: luciferase reporter qHTS assay (AID 1671196); also: nearly all actives have a fitted effect of over 50% in size
EXPERIMENTAL_SETUP: P450-Glo CYP2D6 enzyme assay, luciferin luminescence, 1 h; series mostly up to 115 µM
Inconclusive results are not listed. The source made the active and inactive calls. Calls come from the whole dose curve; as a rule, active = well fitted inhibition curve with a large enough effect in the repeat runs; inconclusive = weak or mixed curves; inactive = no such curve, though single readings can be large or run the other way.
Tick one outcome: active, inactive

Use the examples below as a reference point.
                  compound_structure_string                          target_or_system  answer_label
0  CN(N=O)C(=O)N[C@@H]1[C@@H](O)[C@H](O)[C@@H](CO)O[C@@H]1O  Cytochrome P450 2D6 (Homo sapiens) (UniProt P10635)      inactive
1                    Cc1cc(=O)oc2cc(O)ccc12  Cytochrome P450 2D6 (Homo sapiens) (UniProt P10635)      inactive
2                              F[B-](F)(F)F  Cytochrome P450 2D6 (Homo sapiens) (UniProt P10635)      inactive
3  CCN(Cc1c(F)cccc1Cl)c1c([N+](=O)[O-])cc(C(F)(F)F)cc1[N+](=O)[O-]  Cytochrome P450 2D6 (Homo sapiens) (UniProt P10635)      inactive
4   CC(=O)Nc1c(I)c(NC(C)=O)c(I)c(C(=O)O)c1I  Cytochrome P450 2D6 (Homo sapiens) (UniProt P10635)      inactive
5                CS(=O)(=O)OCCCCOS(C)(=O)=O  Cytochrome P450 2D6 (Homo sapiens) (UniProt P10635)        active

Pending compound:
Query :: Please share the test call associated with "C=C1CC[C@H](O)C/C1=C\C=C1/CCC[C@]2(C)[C@@H]([C@H](C)CCCC(C)C)CC[C@@H]12" .
Result :: inactive

* * *

TEST_PROTOCOL: qHTS RealTime-Glo MT Cell Viability Assay in HEK293 cells - 8 hour (AID 1224887); also: top concentration of the series differs between compounds; nearly all actives have a fitted effect of over 50% in size
EXPERIMENTAL_SETUP: RealTime-Glo luminescence; series mostly up to 76.8 µM
Records with an inconclusive call do not appear. Activity calls are given as the source filed them. The call rests on the fitted dose curve; in most records, active means well fitted cell-killing curve with a large enough effect in the repeat runs; inconclusive means weak or mixed curves, or effect the other way; inactive means flat fitted curve, though single readings scatter.
Tick one outcome: yes (active), no (inactive)

Use the examples below as a reference point.
>>> print(df.to_string())
                                   molecule  answer_label
0                Nc1ccc(O)c([N+](=O)[O-])c1            no
1                   O=C1NS(=O)(=O)c2ccccc21            no
2  CC(=O)CC(c1ccccc1)c1c(O)c2ccccc2oc1=O (configuration not stated)            no

Pending molecule:
Query :: Please share the test call associated with "Cc1ccc(S(=O)(=O)O)cc1" .
Result :: no

* * *

TEST_PROTOCOL: qHTS assay for small molecules that induce genotoxicity in human embryonic kidney cells expressing luciferase-tagged ATAD5 (AID 651632); also: nearly all actives have a fitted effect of over 15% in size
EXPERIMENTAL_SETUP: HEK293T ATAD5-luciferase induction, 16 h; series mostly up to 83.3 µM
Inconclusive results are not listed. Activity calls are given as the source filed them. Calls follow the shape of the dose curve; as a rule, active = well fitted activation curve with a large enough effect in the repeat runs; inconclusive = weak or mixed curves; inactive = no such curve, though single readings can be large or run the other way.
Tick one outcome: y for active, n for inactive

   compound_structure_string  answer_label
0                  CCOC(N)=O             n

Query :: Please share the test call associated with "CC12CCC(CC1)C(C)(C)O2" .
Result :: n

Query :: Please share the test call associated with "NS(=O)(=O)c1cc2c(cc1Cl)NCNS2(=O)=O" .
Result :: n

Query :: Please share the test call associated with "CN(C)C(=S)SC(=S)N(C)C" .
Result :: n

Query :: Please share the test call associated with "C[C@](N)(Cc1ccc(O)c(O)c1)C(=O)O" .
Result :: n

Query :: Please share the test call associated with "O=C1NC(=O)C(c2ccccc2)(c2ccccc2)N1" .
Result :: n

Query :: Please share the test call associated with "O=C(Nc1ncc([N+](=O)[O-])s1)c1cccs1" .
Result :: y
